Molecular target: SARS-CoV-2 spike protein receptor binding domain (RBD2) (SARS-CoV-2, UniProt P0DTC2 319-537)
Assay: SPR sandwich binning, ligand B04
observed property: normalized analyte binding to RBD2 held by the immobilized ligand

1) E01 IgG1 (antibody, V domains shown, also called E1) VH: QVQLQQWGAGLLKPSETLSLKCAVYGGSFSGYYWGWIRQSTGKGLEWIGEINRSGSTNYNPSLKSRVTISVDTSKNQFSLKLSSVTAADTAVYYCARGGARYYYGSGSYRSTPRPYYFDYWGQGTLVTVSS VL: SYELTQPPSVSVAPGETARITCGGDNIGRRHVHWYQQKPGQAPVLVIYDDSDRPSGIPDRFSGSNSGNTATLTIGRVEAGDEADYYCQVWGSSNDPHVFGTGTKLTVL    -0.09
2) H01 IgG1 (antibody, V domains shown, also called H1) VH: QVTLKESGPVLVKPTETLTLTCTVSGFSLSNARMGVSWIRQPPGKALEWLAHIFSNGEKSYSTSLKSRLTISKDTSKSQVVLTMTNMDPVDTATYYCARTLDYYDSSGYLVGGAFDIWGQGTMVTVSS VL: QPGLTQPPSVSLAPGQTARITCGGNNIGSKSVHWYQQKPGQAPVLVVYDDSDRPSGIPERFSGSNAGNTATLTISRVEAGDEADYYCQVWDSRSDQYVFGTRTKLTVL    0.77
3) G07 IgG1 (antibody, V domains shown) VH: QVQLVQSGAEVKKPGESLKISCKGSGYSFTSYWIGWVRQMPGKGLEWMGIIYPGDSDIRYSPSFQGQVTISADKSFSSAYLQWSSLKASDTAMYYCARLGATGAFDIWGQGTTVTVSS VL: QSVLIQPPSASGTPGQRVTISCSGSNSNFGSNSVSWYQQRPGTAPKLLIEGNNQRPSGVPERFSGSKSGTSASLAISGLQSEDEAEYSCASWDDSLNAFVFGPGTKLTVL    -0.03
4) E08 IgG1 (antibody, V domains shown) VH: QVQLVQSGAEVKKPGSSVKVSCKASGGTFSSYAISWVRQAPGQGLEWMGGIIPIFGTANYAQKFQGRVTITADESTSTAYMELSSLRSEDTAVYYCARASGRWLQFWHYYGMDVWGQGTTVTVSS VL: SYVLTQPPSVSVAPGKTARITCGGNNIGWKSVHWYQQKPGQAPVLVVYDDSDRPSGIPERFSGSNSGNTATLTISRVEAGDEADYYCQVWDSSSDLVVFGGGTKLTVL    2.12
5) S01 IgG1 (antibody, V domains shown, also called 501) VH: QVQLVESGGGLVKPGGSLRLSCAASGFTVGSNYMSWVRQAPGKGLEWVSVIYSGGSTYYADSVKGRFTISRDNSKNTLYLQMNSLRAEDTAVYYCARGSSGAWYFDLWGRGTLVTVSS VL: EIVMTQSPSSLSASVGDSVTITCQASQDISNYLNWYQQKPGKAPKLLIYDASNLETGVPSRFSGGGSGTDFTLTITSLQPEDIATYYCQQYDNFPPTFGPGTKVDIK    0.06

// data source = patent US12018066
